We begin with a simple list: items and their reported inhibition at 1 µM.
# study target: Adenosine A3 (Homo sapiens)
# Construct: expressed in transfected cells; host or cells: HEK-293 cells
# Sequence (P0DMS8 whole entry): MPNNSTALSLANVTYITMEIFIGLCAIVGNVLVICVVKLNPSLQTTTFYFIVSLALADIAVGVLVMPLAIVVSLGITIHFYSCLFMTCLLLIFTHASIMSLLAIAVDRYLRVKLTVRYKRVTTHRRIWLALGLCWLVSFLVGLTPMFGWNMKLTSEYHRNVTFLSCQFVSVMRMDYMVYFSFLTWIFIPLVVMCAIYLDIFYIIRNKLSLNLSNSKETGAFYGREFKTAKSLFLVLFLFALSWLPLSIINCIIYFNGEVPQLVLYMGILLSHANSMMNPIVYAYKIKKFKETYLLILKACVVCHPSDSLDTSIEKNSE
# experimental protocol: Radioligand binding assay 2, Adenosine A3
# assay setup: at 1 μmol/l; human recombinant HEK-293 cells, [125I]AB-MECA; read-out: A3 AR % inhibition of agonist binding
Output spec: scalar in %, unitless text.

Some entries whose results are on file:
Quick check: inhibition at 1 µM of C#CCn1c(=O)c2c(nc(C#Cc3ccc(OC)c(OC)c3)n2C)n(C)c1=O [drawing 609] ?
16

Value lookup for inhibition at 1 µM; key = C#CCn1c(=O)c2c(nc(C#Cc3cccc(OC)c3)n2C)n(CCCO)c1=O [drawing 611]
37

New cases:
State the recorded inhibition at 1 µM for this entry: C#CCn1c(=O)c2c(nc(C#Cc3cccc(C)c3)n2C)n(CCCO)c1=O [drawing 613]
54

====

pKi values by entry
# study target: A2A-adenosine receptor human recombinant (Homo sapiens, UniProt P29274)
# Construct: expressed in transfected cells
# Sequence (P29274 whole entry): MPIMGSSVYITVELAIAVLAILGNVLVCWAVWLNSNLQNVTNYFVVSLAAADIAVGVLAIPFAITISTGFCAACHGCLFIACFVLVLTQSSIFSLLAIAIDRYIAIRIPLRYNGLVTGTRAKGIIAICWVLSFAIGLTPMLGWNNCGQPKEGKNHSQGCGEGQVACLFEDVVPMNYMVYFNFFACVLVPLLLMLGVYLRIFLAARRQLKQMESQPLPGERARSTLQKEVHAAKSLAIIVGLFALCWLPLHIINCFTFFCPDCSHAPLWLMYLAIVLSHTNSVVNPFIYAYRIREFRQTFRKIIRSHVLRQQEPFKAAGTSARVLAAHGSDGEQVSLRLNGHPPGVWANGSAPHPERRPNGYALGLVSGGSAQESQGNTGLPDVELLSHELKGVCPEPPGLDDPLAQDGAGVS
# experimental protocol: Radioligand binding assay 1, human recombinant A2A adenosine receptor
# assay setup: human recombinant, [3H]MSX-2; read-out: A2A-adenosine receptor human recombinant [3H] MSX-2 Ki
# Experimental: Rat brain preparations were used for A1- and A2A adenosine receptor (AR) and human recombinant cell samples for A1-, A2A- and A3 adenosine receptor radioligand binding studies. Affinity and selectivity was tested in displacement experiments with following radioligands: [^3H]CCPA for A1-adenosine receptors, [^3H]MSX-2 for A2A-receptors and [^3H]PSB-11 for A3-receptors. Results of these experiments are depicted in table 2b (human data) and table 2a (rat data). […]
FYI, pKi means -log10 of a concentration in mol per litre.

Examples with answers:
// query pKi value for entry C#CCn1c(=O)c2c(nc(C#Cc3ccc(OC)c(OC)c3)n2C)n(C(C)C(C)=O)c1=O (stereo not shown) [drawing 591]
7.27

Param item = C#CCn1c(=O)c2c(nc(C#Cc3ccc(F)c(OC)c3)n2C)n(CC)c1=O [drawing 588] ; retrieve measured pKi.
7.00

Value lookup for pKi; key = C#CCn1c(=O)c2c(nc(C#Cc3ccc(OC)c(OC)c3)n2C)n(CCC#N)c1=O [drawing 577]
7.07

Further cases:
Suppose we examine the compound C#CCn1c(=O)c2c(nc(C#Cc3cccc(OCCCO)c3)n2C)n(C)c1=O [drawing 596] ; what pKi value has been reported?
6.52

====

Record: Ki reported on Rat A2A AR (Rattus norvegicus).
Sequence (P30543 whole entry): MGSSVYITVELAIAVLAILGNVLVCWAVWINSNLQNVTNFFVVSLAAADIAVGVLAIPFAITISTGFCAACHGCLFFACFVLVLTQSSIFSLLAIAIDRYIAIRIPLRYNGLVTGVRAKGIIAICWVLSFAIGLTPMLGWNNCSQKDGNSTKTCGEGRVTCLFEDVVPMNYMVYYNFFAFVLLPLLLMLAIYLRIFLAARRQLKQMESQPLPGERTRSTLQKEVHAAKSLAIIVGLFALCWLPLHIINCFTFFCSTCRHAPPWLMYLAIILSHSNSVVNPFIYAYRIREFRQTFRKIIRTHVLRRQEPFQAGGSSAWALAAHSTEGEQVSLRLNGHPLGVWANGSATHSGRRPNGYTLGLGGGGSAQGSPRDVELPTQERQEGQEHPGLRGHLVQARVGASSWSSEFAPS
Respond with the bare value in nM.

Some compounds with recorded Ki:
Ki of C#CCn1c(=O)c2c(nc(C#Cc3ccc(OC)c(OC)c3)n2C)n(CCCCF)c1=O on Rat A2A AR (Rattus norvegicus)?
11.7

Checklist item: Ki tested on Rat A2A AR (Rattus norvegicus), entry C#CCn1c(=O)c2c(nc(C#Cc3ccc(F)c(OC)c3)n2C)n(C)c1=O , value?
70.3

Query for Rat A2A AR (Rattus norvegicus): what Ki does the record show for C#CCn1c(=O)c2c(nc(C#Cc3cccc(Cl)c3)n2C)n(C)c1=O [drawing 461] ?
46

Recall the recorded Ki for C#CCn1c(=O)c2c(nc(C#Cc3cccc(OCCOC)c3)n2C)n(C)c1=O [drawing 471] with Rat A2A AR (Rattus norvegicus) and state it.
219

Missing value: Ki, Rat A2A AR (Rattus norvegicus), entry C#CCn1c(=O)c2c(nc(C#Cc3cccc(OCc4ccoc4)c3)n2C)n(C)c1=O [drawing 479] . Fill in?
66.4

---
What measured Ki is associated with C#CCn1c(=O)c2c(nc(C#Cc3ccc(OC)c(OC)c3)n2C)n(CC#N)c1=O [drawing 500] on Rat A2A AR (Rattus norvegicus)?
40

Lab note: need Ki with Rat A2A AR (Rattus norvegicus) for entry C#CCn1c(=O)c2c(nc(C#Cc3ccc(F)c(OC)c3)n2C)n(CC)c1=O [drawing 519] , please look it up.
43.1

Item: C#CCn1c(=O)c2c(nc(C#Cc3cncn3C)n2C)n(CC)c1=O [drawing 511] Test system: Rat A2A AR (Rattus norvegicus) Read-out: Ki Value: ?
119

Query Ki on Rat A2A AR (Rattus norvegicus) for C#CCn1c(=O)c2c(nc(C#Cc3ccc(OC)c(OC)c3)n2C)n(Cc2ccno2)c1=O
17.9

For the record C#CCn1c(=O)c2c(nc(C#Cc3ccc(OC)c(OC)c3)n2C)n(Cc2ccoc2)c1=O [drawing 509] , what value of Ki is listed for Rat A2A AR (Rattus norvegicus)?
5.16

Form field - read-out: Ki; system: Rat A2A AR (Rattus norvegicus); submitted item: C#CCn1c(=O)c2c(nc(C#Cc3cccc(OCCCO)c3)n2C)n(C)c1=O [drawing 468]
211

Item C#CCn1c(=O)c2c(nc(C#Cc3cccc(Br)c3)n2C)n(C)c1=O [drawing 462] with Rat A2A AR (Rattus norvegicus) - Ki?
151

Provide value of Ki for this record tested with Rat A2A AR (Rattus norvegicus): C#CCn1c(=O)c2c(nc(C#Cc3ccc(OC)c(OC)c3)n2C)n(CCC)c1=O [drawing 515]
13.4

Test system Rat A2A AR (Rattus norvegicus); read-out Ki; what value for C#CCn1c(=O)c2c(nc(C#Cc3cccc(OC)c3)n2C)n(CCCO)c1=O [drawing 484] ?
11.8

Record lookup: for Rat A2A AR (Rattus norvegicus), what Ki belongs to C#CCn1c(=O)c2c(nc(C#Cc3ccoc3)n2C)n(CC)c1=O ?
220

Which measured Ki belongs to C#CCn1c(=O)c2c(nc(C#Cc3ccc(OC)c(OC)c3)n2C)n(CC(C)=O)c1=O [drawing 525] , tested on Rat A2A AR (Rattus norvegicus)?
18.5

====

# study target: A1-adenosine receptor human recombinant (Homo sapiens)
# Sequence (P30542 whole entry): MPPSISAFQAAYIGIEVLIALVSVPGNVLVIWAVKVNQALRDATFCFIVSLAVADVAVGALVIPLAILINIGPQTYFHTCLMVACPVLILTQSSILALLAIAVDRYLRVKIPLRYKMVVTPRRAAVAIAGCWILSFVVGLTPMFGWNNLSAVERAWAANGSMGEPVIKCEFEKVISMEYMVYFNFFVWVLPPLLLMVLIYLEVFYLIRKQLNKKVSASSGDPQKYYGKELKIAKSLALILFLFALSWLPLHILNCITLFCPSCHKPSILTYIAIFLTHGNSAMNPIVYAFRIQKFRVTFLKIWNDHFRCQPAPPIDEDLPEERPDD
# experimental protocol: Radioligand binding assay 1, human recombinant A1 adenosine receptor
# assay setup: [3H]CCPA
endpoint name: Ki

What value of Ki has been recorded for this entry: C#CCn1c(=O)c2c(nc(C#Cc3ccc(OC)c(OC)c3)n2C)n(CCCC#N)c1=O [drawing 582]
> 1000 nM

Given the entry C#CCn1c(=O)c2c(nc(C#Cc3ccc(OC)c(OC)c3)n2C)n(CC(C)O)c1=O (centres unmarked) [drawing 578] , report its measured Ki.
> 1000 nM

Requested field: Ki. Item: C#CCn1c(=O)c2c(nc(C#Cc3ccc(OC)c(OC)c3)n2C)n(CCN(C)C)c1=O [drawing 568]
> 20000 nM

What measured Ki goes with C#CCn1c(=O)c2c(nc(C#Cc3cccc(OC)c3)n2C)n(C)c1=O [drawing 553] ?
> 10000 nM

# input compound: C#CCn1c(=O)c2c(nc(C#Cc3ccc(OC)c(OC)c3)n2C)n(Cc2cccs2)c1=O [drawing 589] ; wanted: its Ki
> 1000 nM

Form field: reported Ki of C#CCn1c(=O)c2c(nc(C#Cc3ccc(OC)c(OC)c3)n2C)n(CCC)c1=O [drawing 584]
> 1000 nM

If you can, please state the reported Ki value of C#CCn1c(=O)c2c(nc(C#Cc3cccc(OCCN(C)C)c3)n2C)n(C)c1=O [drawing 560] .
> 1000 nM

Entry C#CCn1c(=O)c2c(nc(C#Cc3ccc(OC)c(OC)c3)n2C)n(CC)c1=O [drawing 567] : reported Ki = ?
> 1000 nM

Next:
# input compound: C#CCn1c(=O)c2c(nc(C#Cc3cccc(OCCO)c3)n2C)n(C)c1=O [drawing 557] ; wanted: its Ki
> 1000 nM

Consider the compound shown here: C#CCn1c(=O)c2c(nc(C#Cc3cccc(OCCCN(C)C)c3)n2C)n(C)c1=O [drawing 558] What is its recorded Ki?
1740 nM

====

# study target: A2A-adenosine receptor human recombinant (Homo sapiens, UniProt P29274)
# Construct: expressed in transfected cells
# experimental protocol: Radioligand binding assay 1, human recombinant A2A adenosine receptor
# assay setup: human recombinant, [3H]MSX-2; read-out: A2A-adenosine receptor human recombinant [3H] MSX-2 Ki
Please respond with Y when measured Ki is strictly beneath 60 nM, and with N in all other cases.

Record excerpt, results attached:
Strictly below 60 nM: is that where Ki of C#CCn1c(=O)c2c(nc(C#Cc3ccc(OC)c(OC)c3)n2C)n(CC(C)O)c1=O (centres unmarked) [drawing 578] sits?
Y

Consider C#CCn1c(=O)c2c(nc(C#Cc3cccc(OC)c3)n2C)n(CC(O)CO)c1=O (centres unmarked) [drawing 569] . Does its Ki lie strictly below 60 nM?
N

Please indicate whether the reported Ki of C#CCn1c(=O)c2c(nc(C#Cc3ccc(OC)c(OC)c3)n2C)n(CCCC#N)c1=O [drawing 582] is strictly below 60 nM.
Y

Please state whether Ki is below 60 nM for C#CCn1c(=O)c2c(nc(C#Cc3ccc(OC)c(OC)c3)n2C)n(CC(C)C)c1=O [drawing 585]
N

Decide: Ki of C#CCn1c(=O)c2c(nc(C#Cc3cccc(OC)c3)n2C)n(CCN(C)C)c1=O [drawing 594] strictly below 60 nM?
N

Next:
Quick check: Ki of C#CCn1c(=O)[nH]c2nc(C#Cc3ccc(OC)c(OC)c3)n(C)c2c1=O [drawing 563] under 60 nM?
Y

Given the entry C#CCn1c(=O)c2c(nc(C#Cc3ccc(OC)c(OC)c3)n2C)n(CC(O)CO)c1=O (centres unmarked) [drawing 595] , would its reported Ki be below 60 nM?
N

Please indicate whether the reported Ki of C#CCn1c(=O)c2c(nc(C#Cc3cccc(C)c3)n2C)n(C)c1=O [drawing 555] is strictly below 60 nM.
N

Reference for the values: patent US20080221134A1
